# Run description: qHTS of pediatric cancer cell lines to identify multiple opportunities for drug repurposing: Primary screen for BT-12 cells (AID 1347101); further: nearly all actives have a fitted effect of over 25% in size
# Cond: BT-12 viability, CellTiter-Glo luminescence, 48 h; series mostly up to 57.3 µM
Records with an inconclusive call do not appear. Activity calls are given as the source filed them. The call rests on the fitted dose curve; in most records, active means well fitted cell-killing curve with a large enough effect; inconclusive means small, poorly fitted or top-dose-only effect; inactive means flat fitted curve, though single readings scatter.
Log the outcome using a class from true (1) = active, false (0) = inactive

Recorded test call requested for CCC[C@H]1C[C@H](C(=O)N[C@@H]([C@@H]2O[C@@H](SC)[C@@H](O)[C@@H](O)[C@@H]2O)[C@H](C)Cl)N(C)C1
false (0)

Recorded test call requested for Nc1nc(=O)n([C@H]2CSC(CO)O2)cc1F (some centres undefined)
false (0)

Recorded test call requested for c1cncc(CN2CCC(n3ncc4c(N5CCOCC5)nc(-c5ccc6[nH]ccc6c5)nc43)CC2)c1
true (1)

Recorded test call requested for C[C@@H]1[C@H](C)CC[C@]2(C(=O)O)CC[C@]3(C)C(=CC[C@@H]4[C@@]5(C)C[C@@H](O)[C@H](O)[C@@](C)(CO)[C@H]5CC[C@]43C)[C@@H]12
false (0)

Recorded test call requested for Cc1ccc(O)c(C(CCN(C(C)C)C(C)C)c2ccccc2)c1 (centres undefined)
false (0)

Recorded test call requested for CC(=O)NCC(=O)N1[C@H]2CC[C@H]1c1cc(Nc3ncc(C(F)(F)F)c(NC4CCC4)n3)ccc12
true (1)

Recorded test call requested for O=C(C=CC=Cc1ccc2c(c1)OCO2)N1CCCCC1
false (0)

Recorded test call requested for C=C[C@@H]1CN2CCC1C[C@H]2[C@H](O)c1ccnc2ccc(OC)cc12 (some centres undefined)
false (0)

Recorded test call requested for CCCCOc1ccc(C(=O)Nc2ccc(F)cc2F)cc1
false (0)

* * *

# Run description: qHTS of pediatric cancer cell lines to identify multiple opportunities for drug repurposing: Primary screen for NB1643 cells (AID 1347099); further: nearly all actives have a fitted effect of over 50% in size
# Cond: NB1643 neuroblastoma viability, CellTiter-Glo luminescence, 48 h; series mostly up to 46 µM
Records with an inconclusive call do not appear. Active and inactive are the calls of the source. The call rests on the fitted dose curve; in most records, active means well fitted cell-killing curve with a large enough effect; inconclusive means small, poorly fitted or top-dose-only effect; inactive means no such curve, though single readings can be large or run the other way. Residues, ends and D or L forms follow the SMILES beside them. *: point of attachment. Cbz = O=C(OCc1ccccc1)*
Log the outcome using a class from active, inactive

Recorded test call requested for CCC(C(=O)O)C1CCC(C)C(C(C)C(O)C(C)C(=O)C(CC)C2OC3(C=CC(O)[C@@]4(CC[C@](C)(C5CC[C@@](O)(CC)C(C)O5)O4)O3)C(C)CC2C)O1 (some centres not stated)
active

Recorded test call requested for CC(C)(O)[C@H]1CC[C@@](C)([C@H]2[C@@H](O)C[C@@]3(C)[C@@H]4C[C@H](O[C@@H]5O[C@H](CO)[C@@H](O)[C@H](O)[C@@H]5O)[C@H]5C(C)(C)[C@@H](O[C@@H]6OC[C@@H](O)[C@H](O)[C@@H]6O)CC[C@@]56C[C@@]46CC[C@]23C)O1
inactive

Recorded test call requested for CC(=O)[C@]1(O)Cc2c(O)c3c(c(O)c2[C@@H](O[C@H]2C[C@H](N)[C@@H](O)[C@H](C)O2)C1)C(=O)c1ccccc1C3=O
active

Recorded test call requested for CC(C)C[C@@H](C=O)NC(=O)[C@H](CC(C)C)NC(=O)[C@H](CC(C)C)NC(=O)OCc1ccccc1 (Cbz-Leu-Leu-Leu-aldehyde)
active

Recorded test call requested for CN[C@H]1[C@@H](O)[C@@H]2O[C@@H]3O[C@H](C)CC(=O)[C@]3(O)O[C@@H]2[C@@H](NC)[C@H]1O
active

Recorded test call requested for Cc1ccc(O)c(C(CCN(C(C)C)C(C)C)c2ccccc2)c1 (configuration not stated)
inactive

Recorded test call requested for OCC(O)C(O)C(O)CO (configuration not stated)
inactive

All values here come from PubChem BioAssay (NCATS).
